systemUnderTest: T1, Factor VIIIa (recombinant FVIII, Kogenate FS, Bayer healthcare, activated with alpha-thrombin) (UniProt P00451 20-2351, limits assumed)
T1 construct: also called FVIIIa; cofactor
T1 sequence (looked up): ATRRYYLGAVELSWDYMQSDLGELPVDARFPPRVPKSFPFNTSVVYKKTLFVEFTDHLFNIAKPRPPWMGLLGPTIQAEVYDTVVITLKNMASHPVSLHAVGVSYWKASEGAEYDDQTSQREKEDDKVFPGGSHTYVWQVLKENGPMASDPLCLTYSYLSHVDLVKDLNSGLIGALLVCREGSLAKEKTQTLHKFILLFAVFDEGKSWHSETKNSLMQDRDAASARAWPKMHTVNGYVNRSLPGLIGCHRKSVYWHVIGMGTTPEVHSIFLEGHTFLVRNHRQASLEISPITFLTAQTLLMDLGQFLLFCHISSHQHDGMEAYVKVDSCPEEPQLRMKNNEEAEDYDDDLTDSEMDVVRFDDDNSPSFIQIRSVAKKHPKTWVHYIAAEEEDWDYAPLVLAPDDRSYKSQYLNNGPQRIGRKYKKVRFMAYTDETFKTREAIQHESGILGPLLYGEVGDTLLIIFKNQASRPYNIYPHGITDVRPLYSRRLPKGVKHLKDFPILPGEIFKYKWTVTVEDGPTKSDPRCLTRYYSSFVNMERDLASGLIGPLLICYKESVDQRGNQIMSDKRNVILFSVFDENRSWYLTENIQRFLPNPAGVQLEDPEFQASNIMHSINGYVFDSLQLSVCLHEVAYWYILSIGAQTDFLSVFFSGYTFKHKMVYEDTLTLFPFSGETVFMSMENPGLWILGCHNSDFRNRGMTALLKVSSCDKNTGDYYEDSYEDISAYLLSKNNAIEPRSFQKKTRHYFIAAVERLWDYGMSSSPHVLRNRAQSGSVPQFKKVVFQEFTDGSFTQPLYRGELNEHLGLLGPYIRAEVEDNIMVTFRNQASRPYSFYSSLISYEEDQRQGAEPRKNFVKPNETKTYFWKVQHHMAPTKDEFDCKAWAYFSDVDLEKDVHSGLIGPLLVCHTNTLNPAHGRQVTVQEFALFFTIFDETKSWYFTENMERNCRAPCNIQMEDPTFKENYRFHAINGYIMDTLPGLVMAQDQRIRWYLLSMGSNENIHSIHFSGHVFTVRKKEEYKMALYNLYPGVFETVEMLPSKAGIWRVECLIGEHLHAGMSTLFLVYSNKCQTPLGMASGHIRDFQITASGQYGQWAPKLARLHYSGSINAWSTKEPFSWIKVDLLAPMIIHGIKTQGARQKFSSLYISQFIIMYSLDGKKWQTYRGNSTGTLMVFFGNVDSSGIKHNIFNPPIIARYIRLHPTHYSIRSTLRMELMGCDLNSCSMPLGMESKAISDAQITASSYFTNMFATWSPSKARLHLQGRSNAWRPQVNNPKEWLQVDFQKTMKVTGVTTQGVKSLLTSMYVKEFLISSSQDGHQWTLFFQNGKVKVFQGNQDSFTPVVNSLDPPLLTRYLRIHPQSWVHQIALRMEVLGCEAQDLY
testMethodNotes: same assay; KD-app of Catalyst Biosciences WT FIXa divided by KD-app of the variant
Would you mind telling me the reported KD-WT/KD-mut of each entry?
Note to self: number, then unit, no commentary.

binder	KD-WT/KD-mut
FIXa-R318Y/R338E/T343R/N346D/R403E/E410N (enzyme, also called R150Y/R170E/T175R/N178D/R233E/E240N (chymotrypsin numbering)) chain 1: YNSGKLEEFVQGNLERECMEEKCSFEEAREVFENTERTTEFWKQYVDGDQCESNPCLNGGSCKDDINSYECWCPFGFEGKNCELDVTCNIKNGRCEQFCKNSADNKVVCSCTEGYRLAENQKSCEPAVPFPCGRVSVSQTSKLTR chain 2: VVGGEDAKPGQFPWQVVLNGKVDAFCGGSIVNEKWIVTAAHCVETGVKITVVAGEHNIEETEHTEQKRNVIRIIPHHNYNAAINKYNHDIALLELDEPLVLNSYVTPICIADKEYTNIFLKFGSGYVSGWGRVFHKGYSALVLQYLRVPLVDRATCLESTKFRIYDNMFCAGFHEGGRDSCQGDSGGPHVTEVEGTSFLTGIISWGEECAMKGKYGIYTKVSEYVNWIKNKTKLT	1.3 ratio

Now, please, on to the next binder.
So what does the record say about KD-WT/KD-mut for FIXa-I251S/R318Y/R338E/R403E/E410N (enzyme, also called I86S/R150Y/R170E/R233E/E240N (chymotrypsin numbering)) chain 1: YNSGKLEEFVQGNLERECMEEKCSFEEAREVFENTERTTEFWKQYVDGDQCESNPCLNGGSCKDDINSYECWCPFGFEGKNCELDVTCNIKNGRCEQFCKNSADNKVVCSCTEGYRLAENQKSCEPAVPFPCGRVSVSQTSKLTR chain 2: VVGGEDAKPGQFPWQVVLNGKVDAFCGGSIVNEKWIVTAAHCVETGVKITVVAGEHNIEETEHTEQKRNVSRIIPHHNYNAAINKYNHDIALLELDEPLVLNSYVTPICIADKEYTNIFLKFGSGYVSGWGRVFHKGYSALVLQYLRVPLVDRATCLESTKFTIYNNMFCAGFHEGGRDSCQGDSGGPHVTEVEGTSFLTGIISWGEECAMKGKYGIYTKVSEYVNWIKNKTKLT ?
1.5 ratio
